As shown below, each of these compounds has a reported inhibition value.
assay info: growth inhibition of non-replicating M. tuberculosis (AID 488890);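 further: plate controls were DMSO cells for no effect and high antibiotic wells for full effect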
measurement conditions: Mycobacterium tuberculosis non-replicating, at 25 µM, stronger effect = higher value
The campaign covered roughly 320,000 compounds. About 1,300 (0.41%) were called active. Inconclusive results (about 3%) are left out. These entries were drawn from the full list. Results with a measured potency or affinity are listed apart.
Expressed in %, but write only the number.

Study these solved cases before continuing.
[[record]]
compound = "CC(=O)NCC(=O)OCC(=O)N1c2ccccc2Sc2ccccc21"
reported_result = 15.6

[[record]]
compound = "Cc1cnc(C(=O)OC(C)C(=O)c2c(C)[nH]c3ccccc23)cn1 (stereo not given)"
reported_result = 12.1

[[record]]
compound = "CCc1noc(C)c1C(=O)OC(C)C(=O)c1c(C)[nH]c2ccccc12 (stereo not given)"
reported_result = 26.3

[[record]]
compound = "CC/C(=N\\NC(=O)Nc1ccccc1)c1c(O)n(Cc2ccccc2)c(=O)[nH]c1=O"
reported_result = 0.07

[[record]]
compound = "CC(C)Sc1nc2[nH]ncc2c(=O)[nH]1"
reported_result = -7.65


Name the reported inhibition value associated with the compound O=C1CC2(CCCCC2)Oc2ccc(OCC(=O)N3CCOCC3)cc21
43.3

For COc1ccc(NC(=O)c2ccc(NC(=O)c3cccs3)cc2)cc1 then?
17.2

For COC(=O)Cn1c(CN2CCN(C(=O)c3ccco3)CC2)nc2c1c(=O)n(C)c(=O)n2C then?
0.07

For CCC(=Nc1ccc2c(c1)CCC2)c1c(O)n(C)c(=O)n(C)c1=O then?
7.71

For O=S(=O)([N-]c1nc2ccccc2nc1-n1cc[n+](Cc2ccccc2)c1)c1ccc(Br)cc1 then?
8.51

###

assay info: growth inhibition of non-replicating M. tuberculosis (AID 488890);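 further: plate controls were DMSO cells for no effect and high antibiotic wells for full effect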
measurement conditions: Mycobacterium tuberculosis non-replicating, at 25 µM, stronger effect = higher value
Among all 320,000 compounds or so, about 1,300 (0.41%) were called active. Inconclusive results (about 3%) are left out. A selection follows. Entries with a potency or affinity are not part of this list.
As shown below, each of these compounds has a reported inhibition value.
Expressed in %, but write only the number.

Study these solved cases before continuing.
[[record]]
smiles_data = "Cc1ccc(C(=O)N/N=C/c2c(O)ccc3ccccc23)cn1"
reported_result = -8.14

[[record]]
smiles_data = "O=C(N/N=C/c1ccccc1C(=O)O)c1ccncc1"
reported_result = 47.8

[[record]]
smiles_data = "Cc1nnsc1C(=O)N/N=C/c1ccccc1"
reported_result = -14.8

[[record]]
smiles_data = "O=C(N/N=C/c1cccc2ccccc12)c1cccnc1"
reported_result = 77.8

[[record]]
smiles_data = "O=C(CCCc1nc(-c2ccccc2)no1)Nc1cccnc1"
reported_result = 34.2


Name the reported inhibition value associated with the compound COc1ccc(/C=N/NC(=O)c2snnc2C)c(OC)c1OC
4.13

###

assay info: growth inhibition of non-replicating M. tuberculosis (AID 488890);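 further: plate controls were DMSO cells for no effect and high antibiotic wells for full effect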
measurement conditions: Mycobacterium tuberculosis non-replicating, at 25 µM, stronger effect = higher value
Hit rate of the full screen: of about 320,000 compounds, about 1,300 (0.41%) were called active. Roughly 3% stayed inconclusive and do not appear here. These entries were drawn from the full list. Potency and affinity values are given separately.
As shown below, each of these compounds has a reported inhibition value.
Expressed in %, but write only the number.

Study these solved cases before continuing.
[[record]]
compound = "CCC(=O)Nc1nc2c(OC)ccc(C)c2s1"
reported_result = -15

[[record]]
compound = "CCOc1ccc(C(=O)N/N=C/c2ccc(SC)cc2)cc1"
reported_result = 7.39

[[record]]
compound = "O=C(NCC(c1ccco1)N1CCc2ccccc21)c1ccccc1Br (stereo unspecified)"
reported_result = 11.1

[[record]]
compound = "COc1ccc(COC(=O)c2ccc3c(=O)n4c(nc3c2)CCC4)cc1F"
reported_result = -0.76

[[record]]
compound = "Cc1ccc(C(C)NC(=O)c2ccco2)cc1 (stereo unspecified)"
reported_result = 71.4


Consider the record given below.
Name the reported inhibition value associated with the compound CCOC(=O)C1CCCN(Cc2nc(N)nc(Nc3ccccc3)n2)C1 (stereo unspecified)
42

Each recorded value in this set is attributed to PubChem BioAssay AID488890.
